experiment: solvent given as SMILES; conditions: in CCOCC
Would you mind labelling by solvation free energy, 298 K? At or over -9 kcal/mol is yes (1), under is no (0).

> print(dat)
                                    compound  assigned.class
 1                                  C1COCCO1         yes (1)
 2                                    CC(C)C         yes (1)
 3                         CCCCCCCCCCCCCCCCO          no (0)
 4                          COc1ccccc1C(=O)O          no (0)
 5                                    C=CC=C         yes (1)
 6                                CCC1CCCCC1         yes (1)
 7                         Cc1cccc(C(=O)O)c1          no (0)
 8                                 CCN(CC)CC         yes (1)
 9                                CC(C)(C)Br         yes (1)
10                                    CCCCCl         yes (1)
11                               CCOC(C)(C)C         yes (1)
12                         O=C(O)c1ccc(O)cc1          no (0)
13                     C(=Cc1ccccc1)c1ccccc1          no (0)
14                           O=C(O)c1ccccc1O          no (0)
15                                      [HH]         yes (1)
16                            O=C(O)c1ccccc1          no (0)
17  COc1ccc2cc(C(C)C(=O)O)ccc2c1 (configuration not stated)          no (0)
